- Protocol Notes: growth inhibition, single agent and combos, cell-based, chromothripsis tumors, cisplatin or BGB combos (AID 1671450);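 note: cells exposed to compound for four days; 0% = vehicle DMSO and 100% = cell killing by high DMSO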
- Recorded Conditions: HDN33 neuroblastoma cells, BGB combo, at 5 µM, stronger effect = higher value
Hi there, I'd appreciate the recorded inhibition for every entry that follows.
The reply should be a number in %, with the unit left off.

Which inhibition reading was recorded for the compound `CCn1cc(C(=O)O)c(=O)c2cc3c(cc21)OCO3` ?
-6.85

Which inhibition reading was recorded for the compound `NC(=O)NO` ?
4.14

Which inhibition reading was recorded for the compound `O=c1c(O)c(-c2ccc(O)c(O)c2)oc2cc(O)cc(O)c12` ?
-9.66

Which inhibition reading was recorded for the compound `Nc1nc(=S)c2[nH]cnc2[nH]1` ?
73.6

Which inhibition reading was recorded for the compound CC(N)C12CC3CC(CC(C3)C1)C2 (configuration not stated) ?
-28.3

Which inhibition reading was recorded for the compound `CCN1CCN(c2cc3c(cc2F)c(=O)c(C(=O)O)cn3C2CC2)CC1` ?
-5.32

Which inhibition reading was recorded for the compound `Cc1nc2ccc(CN(C)c3ccc(C(=O)N[C@@H](CCC(=O)O)C(=O)O)s3)cc2c(=O)[nH]1` ?
77.1

* * *

- Protocol Notes: drug combination growth inhibition, ovarian cancer – cell-based, oncology-focused library, rucaparib conditional, profiling panel (AID 1508598)
- Recorded Conditions: patient-derived ovarian cancer cells, CellTiter-Glo viability, 144 h; at 5 µM; OCI-C5x cells; without rucaparib
The source made the active and inactive calls.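 How the source made its calls: active means normalized viability below 100% at a tested concentration; inactive means the rest.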
Your response should consist of one outcome taken from active, inactive

// return assay outcome for COc1ccccc1OCC(O)CN1CCN(CC(=O)Nc2c(C)cccc2C)CC1 (stereo not given)
active

// return assay outcome for `CC[C@@]1(O)C(=O)OCc2c1cc1n(c2=O)Cc2cc3c(CN(C)C)c(O)ccc3nc2-1`
active

// return assay outcome for `CN(Cc1cnc2nc(N)nc(N)c2n1)c1ccc(C(=O)N[C@@H](CCC(=O)O)C(=O)O)cc1`
active

// return assay outcome for `COC(=O)Nc1nc2ccc(C(=O)c3cccs3)cc2[nH]1`
active

// return assay outcome for CC(c1cc2ccccc2s1)N(O)C(N)=O (stereo not given)
inactive

// return assay outcome for `O=c1c(O)c(-c2ccc(O)c(O)c2)oc2cc(O)cc(O)c12`
inactive

// return assay outcome for `Cc1cc2c(C(C)C)c(O)c(O)c(C=O)c2c(O)c1-c1c(C)cc2c(C(C)C)c(O)c(O)c(C=O)c2c1O`
inactive

// return assay outcome for `CCc1c2c(nc3ccc(OC(=O)N4CCC(N5CCCCC5)CC4)cc13)-c1cc3c(c(=O)n1C2)COC(=O)[C@]3(O)CC`
active

// return assay outcome for `COc1cc2c(N3CCN(C(=O)Nc4ccc(OC(C)C)cc4)CC3)ncnc2cc1OCCCN1CCCCC1`
inactive

// return assay outcome for `NC(=O)NO`
inactive

* * *

- Protocol Notes: MELAS cybrid and Rieske KO viability enhancers – cell-based, MELAS cybrids, Rieske KO mouse fibroblasts, CellTiter-Glo, primary screen (AID 1508586);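 note: z relative to plate mean and SD of compound and empty wells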
- Recorded Conditions: MELAS cybrid survival, low glucose, CellTiter-Glo 48 h; stronger effect = higher value
The source made the active and inactive calls.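 The calls were made as follows: active = mean z-score across replicates of 1.96 or higher in either the MELAS or the Rieske mutant cell line; inactive = the rest.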
Measured Parameter: z-score

Which z-score reading was recorded for the compound CCCCCCCCNC(C)C(O)c1ccc(SC(C)C)cc1 (configuration not stated) ?
-2.11

Which z-score reading was recorded for the compound CC(Cc1cccc(C(F)(F)F)c1)NCCOC(=O)c1ccccc1 (configuration not stated) ?
0.63 (inactive)

Which z-score reading was recorded for the compound `NC(N)=NCCN1CCCCCCC1` ?
-0.808 (inactive)

Which z-score reading was recorded for the compound CN1[C@@H]2CC[C@H]1CC(OC(=O)c1c[nH]c3ccccc13)C2 (some centres not stated) ?
0.412 (inactive)

Which z-score reading was recorded for the compound `O=C(COc1ccc(Cl)cc1)N1CCN(Cc2ccc3c(c2)OCO3)CC1` ?
0.452 (inactive)

Which z-score reading was recorded for the compound `Cc1cc(NC(=O)C2=C(O)c3ccccc3S(=O)(=O)N2C)no1` ?
0.335 (inactive)

Which z-score reading was recorded for the compound `CCN1CCC[C@H]1CNC(=O)c1cc(S(N)(=O)=O)ccc1OC` ?
0.469 (inactive)

Which z-score reading was recorded for the compound `CCOc1ccc2nc3cc(N)ccc3c(N)c2c1` ?
7.85 (active)

Which z-score reading was recorded for the compound `Oc1c(Cl)cc(Cl)c(Cl)c1Cc1c(O)c(Cl)cc(Cl)c1Cl` ?
-0.483 (inactive)

Which z-score reading was recorded for the compound `C#C[C@]1(O)CC[C@H]2[C@@H]3CCc4cc(OC)ccc4[C@H]3CC[C@@]21C` ?
1.7 (inactive)

Which z-score reading was recorded for the compound `Nc1ccc(S(=O)(=O)Nc2ccc(Cl)nn2)cc1` ?
0.0891 (inactive)

Which z-score reading was recorded for the compound CCN(CC)CCOC(=O)C(c1ccccc1)C1CCCCC1 (configuration not stated) ?
-2.21 (inactive)

Cited source for all entries: PubChem BioAssay
